Assay: Average animal weight in MCF-7 mouse xenograft model
Type: in vivo
Details: nude mice with MCF-7 xenograft, i.p., day 2
VALUE_KIND: Average Weight of Animals in Grams after Days 2 (Grams)
Hi! Could you send only the number? It should be in Grams, unit omitted.

The recorded Average Weight of Animals in Grams after Days 2 for Cc1cc(=O)n(C(=O)Cn2cnc3scc(-c4cccs4)c3c2=O)[nH]1 [Compound 12] is 27.4

The recorded Average Weight of Animals in Grams after Days 2 for O=C(Cn1cnc2scc(-c3cccs3)c2c1=O)NN1C(=O)CSC1c1ccc(Cl)cc1 (stereo not drawn) [Compound 9] is 24.1

The recorded Average Weight of Animals in Grams after Days 2 for Nc1cc(O)cc(=O)n1NC(=O)Cn1cnc2scc(-c3cccs3)c2c1=O [Compound 14] is 26.4

The recorded Average Weight of Animals in Grams after Days 2 for CC(=O)NNC(=O)Cn1cnc2scc(-c3cccs3)c2c1=O [Compound 13] is 25.4

The recorded Average Weight of Animals in Grams after Days 2 for O=c1oc(Cn2cnc3scc(-c4cccs4)c3c2=O)nc2ccccc12 [Compound 5] is 22.9

The recorded Average Weight of Animals in Grams after Days 2 for CCOC(=O)Cn1cnc2scc(-c3cccs3)c2c1=O [Compound 3] is 28

The recorded Average Weight of Animals in Grams after Days 2 for COc1cccc(C=NNC(=O)Cn2cnc3scc(-c4cccs4)c3c2=O)c1OC [Compound 6] is 23.7

The recorded Average Weight of Animals in Grams after Days 2 for NC1=CC(N)N(NC(=O)Cn2cnc3scc(-c4cccs4)c3c2=O)C=C1 (stereo not drawn) [Compound 15] is 26.1

The recorded Average Weight of Animals in Grams after Days 2 for O=C(Cn1cnc2scc(-c3cccs3)c2c1=O)NN=Cc1ccc(Cl)cc1 [Compound 7] is 27.3

====

Test: Average animal weight in MCF-7 mouse xenograft model
Assay type: in vivo
Conditions: nude mice with MCF-7 xenograft, i.p., day 18
VALUE_KIND: Average Weight of Animals in Grams after Days 18 (Grams)
Hi! Could you send only the number? It should be in Grams, unit omitted.

The recorded Average Weight of Animals in Grams after Days 18 for NC1=CC(N)N(NC(=O)Cn2cnc3scc(-c4cccs4)c3c2=O)C=C1 (stereo not shown) [Compound 15] is 25.5

The recorded Average Weight of Animals in Grams after Days 18 for O=C(Cn1cnc2scc(-c3cccs3)c2c1=O)NNC(=S)Nc1ccccc1 [Compound 10] is 24.4

The recorded Average Weight of Animals in Grams after Days 18 for Nc1cc(O)cc(=O)n1NC(=O)Cn1cnc2scc(-c3cccs3)c2c1=O [Compound 14] is 25.8

The recorded Average Weight of Animals in Grams after Days 18 for COc1cccc(C2SCC(=O)N2NC(=O)Cn2cnc3scc(-c4cccs4)c3c2=O)c1OC (stereo not shown) [Compound 8] is 24.6

The recorded Average Weight of Animals in Grams after Days 18 for CC(=O)NNC(=O)Cn1cnc2scc(-c3cccs3)c2c1=O [Compound 13] is 25.3

The recorded Average Weight of Animals in Grams after Days 18 for O=c1oc(Cn2cnc3scc(-c4cccs4)c3c2=O)nc2ccccc12 [Compound 5] is 22.6

The recorded Average Weight of Animals in Grams after Days 18 for O=C(Cn1cnc2scc(-c3cccs3)c2c1=O)NN1C(=O)CSC1=Nc1ccccc1 [Compound 11] is 26.3

The recorded Average Weight of Animals in Grams after Days 18 for Cc1cc(=O)n(C(=O)Cn2cnc3scc(-c4cccs4)c3c2=O)[nH]1 [Compound 12] is 27.1

The recorded Average Weight of Animals in Grams after Days 18 for CCOC(=O)Cn1cnc2scc(-c3cccs3)c2c1=O [Compound 3] is 27.6

The recorded Average Weight of Animals in Grams after Days 18 for COc1cccc(C=NNC(=O)Cn2cnc3scc(-c4cccs4)c3c2=O)c1OC [Compound 6] is 23.5
